Hey, just so you know, these numbers are from PubChem BioAssay (NCI).

assay: NCI Yeast Anticancer Drug Screen. Data for the sgs1 mgt1 strain (AID 161);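 also: 0% = growth of cultures given vehicle only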; conditions: S. cerevisiae sgs1 mgt1 strain, at 50.0 µM
This is part of a sample that, as a whole, favours compounds with a hit. Of some 79,000 tested, about 15% had one in any assay. Active and inactive are the calls of the source. Rule as the data show it: active = growth inhibition above about 70%; inactive = the rest.
Entry note: the call must match one of label 1 (active), label 0 (inactive)

{"COMPOUND": "ClCCN(CCCl)c1ccc(C2N(Cc3ccc(Cl)cc3)CCN2Cc2ccc(Cl)cc2)cc1", "LABEL": "label 1"}
{"COMPOUND": "CCS(=O)(=O)CCN1C(=O)CN=C(c2ccccc2F)c2cc(Cl)ccc21", "LABEL": "label 0"}
{"COMPOUND": "CC(=O)OC1(C(C)=O)CC2(c3ccccc3)OC1(c1ccccc1)c1ccccc12 (stereo unspecified)", "LABEL": "label 0"}

# fetch the recorded call for CC(C)OP(=O)(OC(C)C)C(C(F)(F)F)C(F)(F)F here label 0

Can you check CC(=O)[O-].CC(=O)[O-].CC(=O)[O-].CC(=O)[O-].[Mo+2].[Mo+2] next? label 0

Similarly, O=C1c2ccccc2CCC1Br (stereo unspecified) ? label 1
